Test system: IGROV-1
Assay: NCI tumour cell line growth inhibition, 48 h
Where a name gives a salt, the structure may show the parent alone. The source made the active and inactive calls. No stated cut-off is given here; in the data, active = GI50 up to about 1.1 µM and inactive = higher. Where a SMILES comes first, the peptide text is derived from it. The star is where a group is joined. Boc = CC(C)(C)OC(=O)*
Provide the reported GI50 of each item.

Q: Tell me the measured GI50 of OCC(O)C(O)C(C=NNc1ncnc2ccc(Br)cc12)=NNc1ncnc2ccc(Br)cc12 (stereo not given) , please.
Result: 1.45 µM (inactive)

Q: Tell me the measured GI50 of Sc1nnc(COc2ccc(Cl)cc2Cl)[nH]1 , please.
Result: > 100 µM (inactive)

Q: Tell me the measured GI50 of COC(=O)c1cc(S(=O)(=O)NC2=NNC(C)CN2)c(S)cc1Cl (stereo not given) , please.
Result: 29.6 µM (inactive)

Q: Tell me the measured GI50 of O=C(O)c1nn[nH]c1Cl , please.
Result: > 100 µM (inactive)

Q: Tell me the measured GI50 of O=C(Nc1cc(Cl)c(I)c(Cl)c1)C(F)(F)F , please.
Result: 27.2 µM (inactive)

Q: Tell me the measured GI50 of COc1ccc(CNc2nc(NCc3ccc(OC)cc3)nc(Nc3ccccc3)n2)cc1 , please.
Result: 9.71 µM (inactive)

Q: Tell me the measured GI50 of O=C(/C=C/c1ccc([N+](=O)[O-])cc1)N1CCN(CCOC(c2ccc(F)cc2)c2ccc(F)cc2)CC1 , please.
Result: 56.9 µM (inactive)

Q: Tell me the measured GI50 of Cc1nn(C(=O)CC(=O)Nc2ccccc2Cl)c(C)c1/N=N/c1ccccc1Cl , please.
Result: > 100 µM (inactive)

Q: Tell me the measured GI50 of Nc1ccccc1C(=O)CCC1C(=O)NC(=S)NC1=O , please.
Result: > 100 µM (inactive)

Q: Tell me the measured GI50 of CN(C)CCOc1ccc(/C(=C(/CCCl)c2ccccc2)c2ccccc2)cc1 [TOREMIFENE CITRATE] , please.
Result: 21.4 µM (inactive)

Q: Tell me the measured GI50 of COc1cccc(NC(=O)/C(CS(=O)(=O)CCC(C(C)=O)C(C)=O)=N/NC(C)(C)C)c1 , please.
Result: > 100 µM (inactive)

Q: Tell me the measured GI50 of CCCCCCCC(=O)OC[C@H](C[As](=O)(O)O)OC(=O)CCCCCCC , please.
Result: 3.57 µM (inactive)

Q: Tell me the measured GI50 of CCOC(=O)Cn1c(C(F)(F)F)nc2nc(Cl)c(Cl)nc21 , please.
Result: 22.8 µM (inactive)

Q: Tell me the measured GI50 of O=C1Nc2cc([N+](=O)[O-])ccc2C(=O)N2CCC[C@@H]12 , please.
Result: > 100 µM (inactive)

Q: Tell me the measured GI50 of COC(=O)C(Cc1c[nH]c2ccccc12)NC(=O)C(Cc1c[nH]c2ccccc12)NC(=O)C(Cc1c[nH]c2ccccc12)NC(=O)C(Cc1c[nH]c2ccccc12)NC(=O)C(Cc1c[nH]c2ccccc12)NC(=O)C(Cc1c[nH]c2ccccc12)NC(=O)C(Cc1c[nH]c2ccccc12)NC(=O)OC(C)(C)C (stereo not given) (Boc-WWWWWWW-OMe; configuration not given here) , please.
Result: > 100 µM (inactive)

Q: Tell me the measured GI50 of C/C(=N/c1[nH]c(=O)cc2c1C(=O)CC2)N(C)C , please.
Result: > 200 µM (inactive)

Q: Tell me the measured GI50 of Cc1cn(C2CC(O)C(Cn3cc(Cn4ncc(=O)[nH]c4=O)nn3)O2)c(=O)[nH]c1=O (stereo not given) , please.
Result: > 100 µM (inactive)

Q: Tell me the measured GI50 of Cc1cccc(NC(=S)Nc2ccc(Cl)cc2)n1 , please.
Result: > 100 µM (inactive)

Q: Tell me the measured GI50 of O=C(/C(=C(/Br)I)c1ccccc1)c1ccccc1 , please.
Result: 29.7 µM (inactive)

Q: Tell me the measured GI50 of COC(=O)C(=O)CC(=O)c1cccc(OC)c1 , please.
Result: < 0.01 µM (active)
